TARGET SYSTEM: UniProt P0A9V1
Sequence (P0A9V1 whole entry): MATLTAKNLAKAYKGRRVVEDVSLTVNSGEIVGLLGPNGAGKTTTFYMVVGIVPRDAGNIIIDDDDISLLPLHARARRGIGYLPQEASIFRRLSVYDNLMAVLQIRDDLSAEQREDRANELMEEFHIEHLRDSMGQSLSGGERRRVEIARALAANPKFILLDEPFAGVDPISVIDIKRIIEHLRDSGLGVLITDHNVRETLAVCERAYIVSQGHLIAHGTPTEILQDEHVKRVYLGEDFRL
METRIC NAME: Kd (µM)

>>> print(df.to_string())
                                smiles_data   target_system  quantity_unit  measured
0  CO[C@@H]1[C@@H](OC(N)=O)[C@@H](O)[C@H](Oc2ccc3c(O)c(NC(=O)c4ccc(F)c(CC=C(C)C)c4)c(=O)oc3c2C)OC1(C)C  UniProt P0A9V1             µM        18
